- Test system: biotinyl-Phe-oxazolone
- protocolText: self-aminoacylation, catalytic enhancement (BFO) (fold over background); higher = more active; k-Seq, kA / k0A0; sequences stand for … in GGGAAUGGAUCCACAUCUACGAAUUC…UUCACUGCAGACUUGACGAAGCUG
This sample holds only a part of the variants without activity.
outcomeMeasure: self-aminoacylation

Hi team, please reply with self-aminoacylation for each item in this list.
1. CCCCACUUCAAGCAAUAGGUC [Fam1B.1 aminoacylation ribozyme variant]
2. AUUACCCUGGUCAUCGUAUGA [Fam2.1 aminoacylation ribozyme variant]
3. GUUCCCCUGGUCAUCGAGUGA [Fam2.1 aminoacylation ribozyme variant]
4. CUACUUCAAACACGCGGUCUG [Fam1A.1 aminoacylation ribozyme variant]
5. CCACAAUUCAAGCAAUCGAUC [Fam1B.1 aminoacylation ribozyme variant]

Solution:
1. 2.02
2. 0.633
3. 43.4
4. 0.711
5. 0.898

Hi team, please reply with self-aminoacylation for each item in this list.
1. UAGUUUGCUCAUAGUCGCAAG [Fam3.1 aminoacylation ribozyme variant]
2. ACUACCCUGGGCAUCGAGUGA [Fam2.1 aminoacylation ribozyme variant]
3. CCACACUUCAAGCCAUCGGCC [Fam1B.1 aminoacylation ribozyme variant]
4. CCACACUUCAAGCAAUCCGCC [Fam1B.1 aminoacylation ribozyme variant]

Solution:
1. 2.67
2. 41.4
3. 5.27
4. 0.939

====

- Tested on: biotinyl-Val-oxazolone
- protocolText: self-aminoacylation, catalytic enhancement (BVO) (fold over background); higher = more active; k-Seq, kA / k0A0; sequences stand for … in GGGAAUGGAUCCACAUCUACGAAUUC…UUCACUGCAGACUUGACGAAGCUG
Fewer inactive variants are shown than the library holds.
For each entry below, report its self-aminoacylation value.
One number for each entry.

Field: example entries. Status: answers known.
>>> recordednumber("CUUCACCUACGUCAUCGGGUG [Fam2.2 aminoacylation ribozyme variant]")
3.69
>>> recordednumber("GUUAACCUAGGUCAUCGGGUG [Fam2.2 aminoacylation ribozyme variant]")
6.73
>>> recordednumber("AUUACCCUUGUCAUCCAGUGA [Fam2.1 aminoacylation ribozyme variant]")
2.25
>>> recordednumber("AUUACUCUGGUCAGCGAGUGA [Fam2.1 aminoacylation ribozyme variant]")
3.13
>>> recordednumber("AUACUUCAAACCAUCGGUCUG [Fam1A.1 aminoacylation ribozyme variant]")
0.917
>>> recordednumber("AUUACCCUGGUCAUCAAGCGA [Fam2.1 aminoacylation ribozyme variant]")
1.13

Hi team, please reply with self-aminoacylation for each item in this list.
1. CCACACUUCAGGCAAUCGUUC [Fam1B.1 aminoacylation ribozyme variant]
2. CUAAUUCAACCAAUCGGUCUG [Fam1A.1 aminoacylation ribozyme variant]
3. AAGUUUGCUCAUAGGCGCAAG [Fam3.1 aminoacylation ribozyme variant]
4. ACACACUUCAAGCAAUCUGUC [Fam1B.1 aminoacylation ribozyme variant]

Solution:
1. 0.792
2. 0.741
3. 0.852
4. 1.02

====

- System: biotinyl-Phe-oxazolone
- protocolText: self-aminoacylation, catalytic enhancement (BFO) (fold over background); higher = more active; k-Seq, kA / k0A0; sequences stand for … in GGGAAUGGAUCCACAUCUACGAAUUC…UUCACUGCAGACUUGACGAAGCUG
This sample holds only a part of the variants without activity.
For each entry below, report its self-aminoacylation value.
Answers are plain numbers.

>>> recordednumber("AAUUUUGCUAAUAGUCGCAAC [Fam3.1 aminoacylation ribozyme variant]")
2.23
>>> recordednumber("CCACUUCAACCAAUCGGUCUG [Fam1A.1 aminoacylation ribozyme variant]")
73.2
>>> recordednumber("CCAUACUUCAAGCAAUCGGUG [Fam1B.1 aminoacylation ribozyme variant]")
24.4

Hi team, please reply with self-aminoacylation for each item in this list.
1. AUACACCUAGGUCAUCGGGUU [Fam2.2 aminoacylation ribozyme variant]
2. AUUACCCUGGUCAUCGAAUGU [Fam2.1 aminoacylation ribozyme variant]
3. CUACACUUCAAGCAGUCGGUC [Fam1B.1 aminoacylation ribozyme variant]
4. CUACUUCAAACAAACGGUCGG [Fam1A.1 aminoacylation ribozyme variant]
5. AAGUUUGCUAAUAGUAUCAAG [Fam3.1 aminoacylation ribozyme variant]
6. AUUUACGUAGGUCAUCGGGUG [Fam2.2 aminoacylation ribozyme variant]

Solution:
1.76
0.64
0.895
0.694
1.64
25.2

Hi team, please reply with self-aminoacylation for each item in this list.
1. AUUUACCUAGGUCAUCGCGUG [Fam2.2 aminoacylation ribozyme variant]
2. GUUACCCUGGUCAUCGAGUUA [Fam2.1 aminoacylation ribozyme variant]
3. AAGUUUGCUACUAGUCUCAAG [Fam3.1 aminoacylation ribozyme variant]
4. AUUCACCUAAGUCAUAGGGUG [Fam2.2 aminoacylation ribozyme variant]
5. AAUUUUGCUAAUAGUCGCGAG [Fam3.1 aminoacylation ribozyme variant]
6. AAGUUUGUUAAUAGACGCAAG [Fam3.1 aminoacylation ribozyme variant]

Solution:
[82.1, 23.1, 1.11, 5.88, 8.52, 0.803]

Hi team, please reply with self-aminoacylation for each item in this list.
1. CUACAUCAACCAAUCGGUCUG [Fam1A.1 aminoacylation ribozyme variant]
2. CUACACUUCAAGCAAUCGGCC [Fam1B.1 aminoacylation ribozyme variant]
3. AUUCCCCUGGUCAUUGAGUGA [Fam2.1 aminoacylation ribozyme variant]
4. AAUCACCUACGUCAUCGGGUG [Fam2.2 aminoacylation ribozyme variant]
5. CUACUGCAAACAAUCGGGCUG [Fam1A.1 aminoacylation ribozyme variant]
6. AUUUCCCUGUUCAUCGAGUGA [Fam2.1 aminoacylation ribozyme variant]
7. CUUCUUCAAUCAAUCGGUCUG [Fam1A.1 aminoacylation ribozyme variant]
8. AAUUCCCUGGUCAUCGAGUGA [Fam2.1 aminoacylation ribozyme variant]

Solution:
1.44
6.22
64.3
53
8.54
11.4
18.9
41.5

Problem: Give the measured self-aminoacylation for AAUAUCCUGGUCAUCGAGUGA [Fam2.1 aminoacylation ribozyme variant]
Solution: 26.2
